Reference source: the supplement of paper PMC11061612

Tested on: CFPAC-1 (Pancreatic Carcinoma)
Test Protocol: Bliss excess, mean over the matrix (fraction); higher = more synergy;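 note: after 72 h of two-drug dosing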
Measured Metric: Bliss excess
Answer using only a numeral; do not append any unit.

Compound: Cc1c2c(nn1C)CSCc1cc(n(C)n1)CSc1cc(c3ccccc3c1)OCCCc1c(C(=O)O)n(C)c3c-2c(Cl)ccc13 [AZD5991] + Cc1cc2ncnn2cc1Nc1ncc2c(n1)n(C1CCOCC1)c(=O)n2C [AZD7648] (first compound max 1 µM, 7x7, partner max 10 µM)
Experimental System: CFPAC-1 (Pancreatic Carcinoma)
Measured Metric: Bliss excess
Reading: -0.002

Prompt line: Recorded Bliss excess for CN(CCO)CC[C@H](CSc1ccccc1)Nc1ccc(S(=O)(=O)NC(=O)c2ccc(N3CCC([C@@H](O)c4ccccc4-c4ccc(Cl)cc4)CC3)cc2)cc1S(=O)(=O)C(F)(F)F [AZD4320] + CCN(CCO)CCCOc1ccc2c(Nc3cc(CC(=O)Nc4cccc(F)c4)[nH]n3)ncnc2c1 [AZD2811] (first compound max 1 µM, 7x7, partner max 1 µM) with CFPAC-1 (Pancreatic Carcinoma), please?
Response line: -0.0754

* * *

Tested on: KATOIII (Gastric Carcinoma)
Test Protocol: Bliss excess, mean over the matrix (fraction); higher = more synergy
Reported Bliss excess values for the following compounds.
Answer using only a numeral; do not append any unit.

Prompt line: Bench note: what Bliss excess did COc1nnc2ccc(N3CCC(c4ccc(OCCN5CCN(C)C(=O)[C@H]5C)cc4)CC3)nn12 [AZD5153] + C=CCn1c(=O)c2cnc(Nc3ccc(N4CCN(C)CC4)cc3)nc2n1-c1cccc(C(C)(C)O)n1 [AZD1775] (first compound max 1 µM, partner max 1 µM) show?
Response line: -0.148

Prompt line: Bench note: what Bliss excess did COc1cc2ncnc(Nc3ccc(F)c(Cl)c3)c2cc1OCCCN1CCOCC1 [Gefitinib] + CC(C)n1c(=O)n(C)c2cnc3cc(F)c(-c4ccc(OCCCN5CCCCC5)nc4)cc3c21 [AZD1390] (first compound max 10 µM, 7x7, partner max 0.3 µM) show?
Response line: -0.0113

Prompt line: Bench note: what Bliss excess did Cc1cc2ncnn2cc1Nc1ncc2c(n1)n(C1CCOCC1)c(=O)n2C [AZD7648] + C[C@@H]1COCCN1C2=NC(=NC(=C2)C3(CC3)[S@](=N)(=O)C)C4=C5C=CNC5=NC=C4 [AZD6738] (first compound max 10 µM, 7x7, partner max 10 µM) show?
Response line: -0.064

Prompt line: Bench note: what Bliss excess did CC1(C)CCC(CN2CCN(c3ccc(C(=O)NS(=O)(=O)c4ccc(NCC5CCOCC5)c([N+](=O)[O-])c4)c(Oc4cnc5[nH]ccc5c4)c3)CC2)=C(c2ccc(Cl)cc2)C1 [Venetoclax] + CCN(CCO)CCCOc1ccc2c(Nc3cc(CC(=O)Nc4cccc(F)c4)[nH]n3)ncnc2c1 [AZD2811] (first compound max 1 µM, 7x7, partner max 1 µM) show?
Response line: -0.0226

Prompt line: Bench note: what Bliss excess did C[C@@H](Oc1cc(-c2cnn(C3CCNCC3)c2)cnc1N)c1c(Cl)ccc(F)c1Cl [Crizotinib] + CC1=C(C(=CC=C1)Cl)NC(=O)C2=CN=C(S2)NC3=CC(=NC(=N3)C)N4CCN(CC4)CCO [Dasatinib] (first compound max 10 µM, 7x7, partner max 2 µM) show?
Response line: -0.0263

Prompt line: Bench note: what Bliss excess did CC(=O)Nc1cccc(-n2c(=O)n(C3CC3)c(=O)c3c(Nc4ccc(I)cc4F)n(C)c(=O)c(C)c32)c1 [Trametinib] + Cc1nc(-c2cn3c(n2)-c2ccc(-c4cnn(C(C)(C)C(N)=O)c4)cc2OCC3)n(C(C)C)n1 [Taselisib] (first compound max 1 µM, 7x7, partner max 10 µM) show?
Response line: 0.0938

Prompt line: Bench note: what Bliss excess did CN(CCO)CC[C@H](CSc1ccccc1)Nc1ccc(S(=O)(=O)NC(=O)c2ccc(N3CCC([C@@H](O)c4ccccc4-c4ccc(Cl)cc4)CC3)cc2)cc1S(=O)(=O)C(F)(F)F [AZD4320] + C=CCn1c(=O)c2cnc(Nc3ccc(N4CCN(C)CC4)cc3)nc2n1-c1cccc(C(C)(C)O)n1 [AZD1775] (first compound max 1 µM, partner max 1 µM) show?
Response line: -0.043
